Field: TGI. Provide a value for each of the compounds that follow.
- System: SNB-19 CNS
- protocol-details: NCI tumour cell line growth inhibition, 48 h

Problem: State, in one line, measured TGI of CC(=O)O[C@@H]1C[C@@]23C[C@@]24CC[C@H](OC2OCC(O)C(O)C2O)C(C)(C)[C@@H]4CC=C3[C@]2(C)C[C@@H]3OC4(C[C@@H](C)[C@@H]3[C@@]12C)OC(O)[C@@]1(C)O[C@@H]41 (some centres undefined)
Solution: > 100 µM

Problem: Respond only with TGI recorded for CN(C)c1nc(N(C)C)nc(N(C)C23CC4CC(CC(C4)C2)C3)n1
Solution: 96 µM

Problem: Please give the documented TGI of N=C1N(S(=O)(=O)c2ccccc2)[C@@H](Cc2ccccc2)[C@H](c2ccccc2)C1(c1ccccc1)c1ccccc1
Solution: > 100 µM

Problem: Annotate the compound C=C(CCC(C)C1CCC2C3=C(C(=O)CC21C)C1(C)CCC(=O)[C@@H](C)C1CC3=O)C(C)C(=O)O (some centres undefined) with its measured TGI.
Solution: > 100 µM
